TARGET OF ASSAY: σ1 receptors (Homo sapiens, UniProt Q99720)
Construct: incubating 50 μg of HEK-293 cell membranes with 10 nM (+)-[^3H]-pentazocine; endogenous in cells
Sequence (Q99720 whole entry): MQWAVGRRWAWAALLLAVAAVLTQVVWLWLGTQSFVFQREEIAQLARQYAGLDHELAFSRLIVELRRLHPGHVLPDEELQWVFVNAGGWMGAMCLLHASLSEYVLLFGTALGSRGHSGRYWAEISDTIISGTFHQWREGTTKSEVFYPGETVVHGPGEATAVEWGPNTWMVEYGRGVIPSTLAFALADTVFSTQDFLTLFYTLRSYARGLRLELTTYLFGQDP
PROTOCOL NOTES: σ1 receptor binding assay ((+)-[3H]pentazocine displacement, HEK-293 cell membranes)
pIC50: −log10 of the molar value.
REPORTED METRIC: pIC50

Req: # lookup: pIC50 of COc1cc(CCN2CCN(CCCc3ccccc3)CC2)cc(OC)c1OC.Cl [hydrochloride]
Resp: > 6.52
